- Method Notes: soluble fraction after stress (log2 fold change); higher = more stays soluble; pooled small domains, quantitative proteomics
- Condition Context: stress: 50 degC
Reported values of soluble fraction (log2) for individual entries
Measurement Kind: soluble fraction (log2)

# Sequence String, Measurement Kind, Result Number
records = [
    ("HMGRELSDLELSLLRILDDKIPLLIDEAADRLQLPVAQVLSAVTIMEIDGLIRREGMRKYLRTVEVEETK", "soluble fraction (log2)", -0.499),
    ("HMHHSGLRQSQFDEISRQIRSLLEMESLSLQELKTRMEDVPEEQLTKVVSYLLSEEIIRQENGRLQ", "soluble fraction (log2)", -0.0768),
    ("HMVKSYEVPDVSNLTVLEAEAKLQEMGFEIDEEQKEISSSDIESGRVVKTSPQAGSKRKEGAIITLYVSSG", "soluble fraction (log2)", 0.163),
    ("HMGLTLREKMGHVLEMLKGREFLPFVSLFTVEEGRIGVVVTFMSILELVKEGILDLVQTESFGPIHVKAR", "soluble fraction (log2)", -0.326),
    ("HMNPLDGTSVHPESYEAAEKLLKKQGFSLEDISGGKLTGLSLTIKDYARLAKELEIGEITLRDIVKELEK", "soluble fraction (log2)", 0.0193),
    ("HMGTGADKNSWTIGDKVKHRKWGTGTVVKVTGAGEDAELDIAFKSEGIKRLLAAFAPIEKVK", "soluble fraction (log2)", -0.034),
    ("HMYMWQVEDLLRANELDIENIKKTIIDHYQLDDAQKSELTRWYEDLINMMRLEGVTKEGHLQINK", "soluble fraction (log2)", -1.41),
    ("HMSPRADRSVNLDVGETVQIDDWGADGTAQIRYRGAPWTAVLRPGHTPHPGPHRVIELVGSRLLVEP", "soluble fraction (log2)", -0.0121),
]

Data provenance is the domain aggregation screens of Martell et al. (2025).
